Where do these numbers come from? They come from patent US20220073617A1.

Target: T1, monovalent hVISTA-ECD (human VISTA extracellular domain with His tail) (human, UniProt Q9H7M9 33-193)
T1 construct: analyte flowed over captured antibody; also called huVISTA-His
T1 sequence (Q9H7M9 other isoform, or with tags, fused parts or gaps limits assumed): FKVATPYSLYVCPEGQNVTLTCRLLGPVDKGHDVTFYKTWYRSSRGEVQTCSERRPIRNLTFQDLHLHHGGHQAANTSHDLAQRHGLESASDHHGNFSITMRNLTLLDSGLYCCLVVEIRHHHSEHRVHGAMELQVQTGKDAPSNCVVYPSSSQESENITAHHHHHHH
Experiment: SPR
Recorded endpoint: KD ratio (pH 7.4/pH 6.0)
The answer should be written as a number, with no unit following it.

Record excerpt, results attached:
For the binder shown here, P1-064534 (41F11_VH_D31E/S35Y/Y50W/S55E/A60H/Y100E/F100aG) (antibody, V domains shown, Kabat positions; also called P1-064534-1) VH: QVQLVESGGGLVKPGGSLRLSCAASGFTFSEYYMYWIRQAPGKGLEWVSWISNSGEPIYYHDSVKGRFTISRDNAKNSLYLQMNSLRAEDTAVYYCARDLPGWEGDLWGRGTLVTVSS VL: EIVLTQSPATLSLSPGERATLSCRASQSVSSYLAWYQQKPGQAPRLLIYDASNRATGIPARFSASGSGTDFTLTISSLEPEDFAVYYCQQRNNWPRTFGQGTKVEIK , give the reported KD ratio (pH 7.4/pH 6.0).
1.79

Find the recorded KD ratio (pH 7.4/pH 6.0) belonging to P1-064478 (41F11_VH_Y50E) (antibody, V domains shown, Kabat positions; also called P1-064478-1) VH: QVQLVESGGGLVKPGGSLRLSCAASGFTFSDYYMSWIRQAPGKGLEWVSEISNSGSPIYYADSVKGRFTISRDNAKNSLYLQMNSLRAEDTAVYYCARDLPGWYFDLWGRGTLVTVSS VL: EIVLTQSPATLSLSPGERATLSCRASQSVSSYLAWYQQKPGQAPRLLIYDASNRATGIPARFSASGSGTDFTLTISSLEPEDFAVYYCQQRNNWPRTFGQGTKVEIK and report it.
0.07

***
What value of KD ratio (pH 7.4/pH 6.0) has been reported for the following binder? P1-064510 (41F11_Vk_A25E/V29D/A64G/R91T) (antibody, V domains shown, also called P1-064510-1) VH: QVQLVESGGGLVKPGGSLRLSCAASGFTFSDYYMSWIRQAPGKGLEWVSYISNSGSPIYYADSVKGRFTISRDNAKNSLYLQMNSLRAEDTAVYYCARDLPGWYFDLWGRGTLVTVSS VL: EIVLTQSPATLSLSPGERATLSCRESQSDSSYLAWYQQKPGQAPRLLIYDASNRATGIPARFSGSGSGTDFTLTISSLEPEDFAVYYCQQTNNWPRTFGQGTKVEIK
33.8
